tested_on: WT CFTR (Homo sapiens, UniProt P13569)
Construct: expressed in transfected cells; host or cells: Xenopus laevis oocytes injected with cRNA transcribed from pGEMHE-CFTR
Sequence (P13569 whole entry): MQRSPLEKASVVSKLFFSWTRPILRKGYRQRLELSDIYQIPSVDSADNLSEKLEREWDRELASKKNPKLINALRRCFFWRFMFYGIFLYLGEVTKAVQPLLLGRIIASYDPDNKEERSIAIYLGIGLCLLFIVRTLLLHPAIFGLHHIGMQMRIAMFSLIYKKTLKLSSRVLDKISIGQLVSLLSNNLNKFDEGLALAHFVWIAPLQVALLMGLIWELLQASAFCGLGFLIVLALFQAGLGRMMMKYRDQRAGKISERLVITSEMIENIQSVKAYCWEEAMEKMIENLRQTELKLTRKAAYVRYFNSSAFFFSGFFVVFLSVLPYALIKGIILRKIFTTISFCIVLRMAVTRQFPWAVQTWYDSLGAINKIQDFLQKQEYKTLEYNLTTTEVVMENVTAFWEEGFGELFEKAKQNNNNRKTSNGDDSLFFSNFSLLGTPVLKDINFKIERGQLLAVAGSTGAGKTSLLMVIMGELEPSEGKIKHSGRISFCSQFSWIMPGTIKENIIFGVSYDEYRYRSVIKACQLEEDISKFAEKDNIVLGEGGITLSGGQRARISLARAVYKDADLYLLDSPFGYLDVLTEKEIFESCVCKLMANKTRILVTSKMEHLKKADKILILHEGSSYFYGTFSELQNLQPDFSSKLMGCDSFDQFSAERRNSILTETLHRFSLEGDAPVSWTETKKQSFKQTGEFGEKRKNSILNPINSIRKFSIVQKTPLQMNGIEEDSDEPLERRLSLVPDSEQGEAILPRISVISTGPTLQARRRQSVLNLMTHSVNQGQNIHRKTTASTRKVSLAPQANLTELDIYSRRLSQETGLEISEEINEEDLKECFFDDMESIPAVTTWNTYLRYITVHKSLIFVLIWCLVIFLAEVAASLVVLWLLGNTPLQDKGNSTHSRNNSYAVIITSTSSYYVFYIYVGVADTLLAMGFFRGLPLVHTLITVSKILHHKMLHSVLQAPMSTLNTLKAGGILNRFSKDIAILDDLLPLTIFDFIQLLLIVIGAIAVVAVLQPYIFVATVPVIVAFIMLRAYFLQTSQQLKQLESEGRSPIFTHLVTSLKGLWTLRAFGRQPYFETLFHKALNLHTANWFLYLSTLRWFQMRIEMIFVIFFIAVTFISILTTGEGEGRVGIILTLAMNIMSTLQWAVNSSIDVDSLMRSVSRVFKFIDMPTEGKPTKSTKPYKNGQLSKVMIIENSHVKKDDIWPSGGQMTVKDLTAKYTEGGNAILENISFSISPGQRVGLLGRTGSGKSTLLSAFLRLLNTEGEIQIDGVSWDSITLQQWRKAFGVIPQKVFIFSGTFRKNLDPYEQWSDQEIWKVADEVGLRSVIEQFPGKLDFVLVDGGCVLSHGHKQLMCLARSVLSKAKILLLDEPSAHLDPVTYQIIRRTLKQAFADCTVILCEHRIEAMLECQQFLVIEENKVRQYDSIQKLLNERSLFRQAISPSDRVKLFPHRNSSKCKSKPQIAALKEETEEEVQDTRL
protocol_details: Ensemble fitting of gating models (Schemes 3 and 4) to on-off current time courses
Assay type: biochemical
condition_parameters: Scheme 3, average of three fits; calculated from fit parameters; read-out: K0.5;mem
readout: pEC50
Answer as the number alone; pEC50 is minus log10 of concentration in mol/L.

For this compound ( CC(C)(C)c1cc(C(C)(C)C)c(NC(=O)c2c[nH]c3ccccc3c2=O)cc1O ), measured pEC50 is 4.68

###

protocol_details: Determination of Vx-770 solubility profile (incremental solvent addition; saturated saline, 1-octanol extraction, spectrophotometry at 311 nm)
Assay type: physicochemical
condition_parameters: aqueous saline (standard bath solution), pH 7.1, 37°C, pH = 7.1, aqueous saline; read-out: aqueous solubility Saq
readout: solubility (µM)
Numeric answer only, unit µM assumed.

Per the records, this compound ( CC(C)(C)c1cc(C(C)(C)C)c(NC(=O)c2c[nH]c3ccccc3c2=O)cc1O [Vx-770, ivacaftor] ) has solubility equal to 0.138

###

protocol_details: Determination of Vx-770 solubility profile (incremental solvent addition; saturated saline, 1-octanol extraction, spectrophotometry at 311 nm)
Assay type: physicochemical
condition_parameters: aqueous saline (standard bath solution), 25 °C, pH 7.1, thermodynamic from solid, water (pH=7.1), aqueous saline; 25°C; read-out: S (solubility)
Description: We reasoned that some of the reported controversies on Vx-770 effects might be explained by the use of highly supersaturated concentrations of the drug in all published studies, and set out to determine its true solubility profile. Starting from crystalline Vx-770 (Selleck Chemicals), solubilities (S) of the drug in various organic solvents could be readily determined by adding incremental small volumes of solvent until all crystals had been dissolved (Table 1). […]
readout: solubility at 24 h (µM)
// units = µM; emit number, no label

Reported solubility at 24 h for CC(C)(C)c1cc(C(C)(C)C)c(NC(=O)c2c[nH]c3ccccc3c2=O)cc1O was 0.062

###

protocol_details: Determination of Vx-770 solubility profile (incremental solvent addition; saturated saline, 1-octanol extraction, spectrophotometry at 311 nm)
Type: physicochemical
condition_parameters: aqueous saline (standard bath solution), pH 7.1, 25°C, pH = 7.1, aqueous saline; read-out: aqueous solubility Saq
readout: solubility at 24 h (µM)
Lab book: enter the figure in µM, no units written.

molecule CC(C)(C)c1cc(C(C)(C)C)c(NC(=O)c2c[nH]c3ccccc3c2=O)cc1O , solubility at 24 h observed: 0.06

###

protocol_details: Determination of Vx-770 solubility profile (incremental solvent addition; saturated saline, 1-octanol extraction, spectrophotometry at 311 nm)
Type: physicochemical
condition_parameters: anhydrous DMSO, 25 °C, organic solvent or mixture, thermodynamic from solid, DMSO; 25°C; read-out: S (solubility)
readout: solubility (mM)
Entry rule: numbers only, all in mM.

What the record says about CC(C)(C)c1cc(C(C)(C)C)c(NC(=O)c2c[nH]c3ccccc3c2=O)cc1O [Vx-770, ivacaftor] : solubility is 770

###

tested_on: WT CFTR (Homo sapiens, UniProt P13569)
Construct: expressed in transfected cells; host or cells: Xenopus laevis oocytes injected with cRNA transcribed from pGEMHE-CFTR
protocol_details: Ensemble fitting of gating models (Schemes 3 and 4) to on-off current time courses
Type: biochemical
condition_parameters: Scheme 3, average of three fits; calculated from fit parameters; read-out: K0.5;aq
readout: EC50

The compound CC(C)(C)c1cc(C(C)(C)C)c(NC(=O)c2c[nH]c3ccccc3c2=O)cc1O [Vx-770, ivacaftor] showed EC50 equal to 0.675 nM

###

tested_on: WT CFTR (Homo sapiens, UniProt P13569)
Construct: expressed in transfected cells; host or cells: Xenopus laevis oocytes injected with cRNA transcribed from pGEMHE-CFTR
protocol_details: Ensemble fitting of gating models (Schemes 3 and 4) to on-off current time courses
Type: biochemical
condition_parameters: Scheme 3, Figure 5f data set; calculated from fit parameters; read-out: K0.5;aq
readout: EC50

response.value for CC(C)(C)c1cc(C(C)(C)C)c(NC(=O)c2c[nH]c3ccccc3c2=O)cc1O (field: EC50) = 0.74 nM

###

protocol_details: Octanol/water distribution coefficient from solubilities
Assay type: physicochemical
condition_parameters: octanol/water, pH=7.1
readout: logD
# answer = number (no unit)

# logD (molecule: CC(C)(C)c1cc(C(C)(C)C)c(NC(=O)c2c[nH]c3ccccc3c2=O)cc1O ) is 4.8

###

tested_on: WT CFTR (Homo sapiens, UniProt P13569)
Construct: expressed in transfected cells; host or cells: Xenopus laevis oocytes injected with cRNA transcribed from pGEMHE-CFTR
protocol_details: Macroscopic current recording in excised inside-out patches from Xenopus laevis oocytes
Assay type: biochemical
condition_parameters: diluted from 1x saturated aqueous stock, assuming 62 nM; 2 mM ATP, 25°C; read-out: K0.5 for current stimulation
readout: EC50 (nM)
State just the number; it will be interpreted in nM.

Value of EC50 reported for the compound CC(C)(C)c1cc(C(C)(C)C)c(NC(=O)c2c[nH]c3ccccc3c2=O)cc1O [Vx-770, ivacaftor] is 0.47

Hey, just so you know, these numbers are from paper PMC6594753.
